Assay: yeast display, Sf9 membrane polyspecificity reagent, FACS + sequencing; frameworks hold sequencing errors
measured-metric: polyreactivity (PSR sort gate)

1) QEQLQECGGGLVQAGGSLRLSCAASGNVFDADIMGWYRQAPGKERELVASVTDGGSTNYADSVKGRFTFSRDIAKNTVYLQMNSLKPEDTAVYYCAAIVYPDILTYFDYDYDYFYWGQGTQVTVGS    low polyreactivity
2) QVQLVESGGGLVQAGGSLRLSCAASGITFDSYAMGWYRQAPGKERELVATISRSGTTTYYADSVKGRFTISRDNAKNTVYLQMNSLKPEDTAVYYCNTLRAYWTYHFYGAVRDGYDYWGQGTQVTVSS    low polyreactivity
